Every entry's value here was drawn from the supplement of paper PMC10567573.

B1: CLCN6 (parent)
chain: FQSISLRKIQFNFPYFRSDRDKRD

# Variants of: B1
# Assay name: protein stability index of a GFP-peptide fusion (GPS, HEK-293T) (PSI 1-6); higher = more stable;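 further: lentivirally expressed fusions sorted by FACS into six bins by GFP to DsRed ratio, PSI derived from sequencing read proportions per bin multiplied by bin number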
# Condition context: c terminus: a fixed tail appended
Entries and their measured protein stability index follow.
// keep it numeric: no unit symbol after the value

# annotated cases, reported protein stability index shown
>>> df
   mutation_key  observed_measurement
0          D24I                  2.59
1          D19A                  1.67
2          R23E                  1.86
3          D19F                  1.68

Note: attention shifts to another entry.
Output protein stability index of R23K
1.91
